Test system: Human immunodeficiency virus 1
Assay Details: Resistance index, ratio of EC50 for HIV-1 harboring reverse transcriptase Y188L mutant to EC50 for wild type HIV-1 NL4-3
Type: functional
Could you label it true if measured Ratio EC50 is 300 or higher, and false otherwise?

{"Compound": "CCCNc1nc(C(OC)c2c(Cl)cccc2Cl)c(C)c(=O)[nH]1 (configuration not stated)", "Class Assignment": "true"}
{"Compound": "COC(c1nc(SC2CCCC2)[nH]c(=O)c1C)c1c(Cl)cccc1Cl (configuration not stated)", "Class Assignment": "true"}
{"Compound": "CCCNc1nc(C(OC)c2c(F)cccc2Cl)c(C)c(=O)[nH]1 (configuration not stated)", "Class Assignment": "true"}
{"Compound": "CCCN(C)c1nc(C(OC)c2c(F)cccc2F)c(C)c(=O)[nH]1 (configuration not stated)", "Class Assignment": "false"}
{"Compound": "Cc1c([C@H](C)c2c(F)cccc2F)nc(SC2CCCC2)[nH]c1=O", "Class Assignment": "true"}
{"Compound": "COC(c1nc(NC(C)C)[nH]c(=O)c1C)c1c(Cl)cccc1Cl (configuration not stated)", "Class Assignment": "false"}
{"Compound": "CCCN(C)c1nc(C(OC)c2c(F)cccc2Cl)c(C)c(=O)[nH]1 (configuration not stated)", "Class Assignment": "false"}
{"Compound": "COC(c1nc(SC(C)C)[nH]c(=O)c1C)c1c(Cl)cccc1Cl (configuration not stated)", "Class Assignment": "true"}
{"Compound": "COC(c1nc(NC2CCCC2)[nH]c(=O)c1C)c1c(F)cccc1Cl (configuration not stated)", "Class Assignment": "true"}
{"Compound": "CCC(C)Sc1nc(C(OC)c2c(F)cccc2F)c(C)c(=O)[nH]1 (configuration not stated)", "Class Assignment": "true"}
{"Compound": "CCCNc1nc(C(OC)c2c(F)cccc2F)c(C)c(=O)[nH]1 (configuration not stated)", "Class Assignment": "true"}
{"Compound": "CO[C@@H](c1nc(SC(C)C)[nH]c(=O)c1C)c1c(F)cccc1Cl", "Class Assignment": "false"}
{"Compound": "Cc1c(C(C)c2c(F)cccc2F)nc(NC2CCCC2)[nH]c1=O (configuration not stated)", "Class Assignment": "false"}
{"Compound": "CCCN(C)c1nc([C@@H](OC)c2c(Cl)cccc2Cl)c(C)c(=O)[nH]1", "Class Assignment": "false"}
{"Compound": "Cc1c([C@@H](C)c2c(F)cccc2F)nc(SC2CCCC2)[nH]c1=O", "Class Assignment": "true"}
{"Compound": "CCCN(C)c1nc(C(C)c2c(F)cccc2F)c(C)c(=O)[nH]1 (configuration not stated)", "Class Assignment": "false"}
{"Compound": "CO[C@H](c1nc(SC(C)C)[nH]c(=O)c1C)c1c(F)cccc1Cl", "Class Assignment": "false"}
{"Compound": "CCC(C)Sc1nc(C(OC)c2c(F)cccc2Cl)c(C)c(=O)[nH]1 (configuration not stated)", "Class Assignment": "false"}
{"Compound": "COC(c1nc(SC2CCCC2)[nH]c(=O)c1C)c1c(F)cccc1F (configuration not stated)", "Class Assignment": "false"}
{"Compound": "COC(c1nc(SC2CCCC2)[nH]c(=O)c1C)c1c(F)cccc1Cl (configuration not stated)", "Class Assignment": "true"}
{"Compound": "Cc1cc(C#N)cc(C)c1Oc1nc(Nc2ccc(C#N)cc2)nc(N)c1Br", "Class Assignment": "false"}

Measured values drawn from ChEMBL document CHEMBL4371047 for this set.
